Biological target: T1, FLAG-tagged human APRIL (human, UniProt O75888 105-250, limits assumed)
T1 construct: also called FLAG-tagged APRIL; FLAG-APRIL; not shown: FLAG tag
T1 sequence (looked up): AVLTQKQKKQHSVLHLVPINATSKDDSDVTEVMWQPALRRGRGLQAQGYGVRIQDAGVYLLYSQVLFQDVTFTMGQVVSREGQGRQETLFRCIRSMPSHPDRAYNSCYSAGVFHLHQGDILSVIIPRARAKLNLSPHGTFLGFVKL
Assay: FLAG-APRIL ELISA after 10 min at 70 °C, antibody at 1 µg/ml
Assignment: determine reported % residual binding after heat treatment (room temperature = 100%) for the given binders.
One number for each entry, in %.

Take a look at these entries with their results.
Binder	Units of measure	Reported measurement
VH14.VL15 (antibody, human IgG4 S228P, kappa, V domains shown, Humanized IgG4 (S241P, Kabat) with human kappa, from HEK293T) VH: QVQLVQSGAEVKKPGASVKVSCKASGYTFTSYVMHWVRQAPGQGLEWMGYINPYNDAPKYNEKFKGRVTMTRDTSASTAYMELSSLRSDDTAVYYCARGLGYALYYAMDYWGQGTTVTVSS VL: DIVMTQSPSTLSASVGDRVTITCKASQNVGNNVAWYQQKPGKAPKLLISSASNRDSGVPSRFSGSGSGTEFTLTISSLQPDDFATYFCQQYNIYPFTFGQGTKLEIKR	%	55.1
VH14_1E.VL15 (antibody, human IgG4, V domains shown, VH14_1 with Q1E; Rest is human IgG4 (S241P, Kabat) and human kappa; also called 14_1E.15) VH: EVQLVQSGAEVKKPGASVKVSCKASGYTFTSYVMHWVRQAPGQGLEWMGYINPYNDAPKYNEKFKGRVTMTSDTSASTAYMELSSLRSDDTAVYYCARGLGYALYYAMDYWGQGTTVTVSS VL: DIVMTQSPSTLSASVGDRVTITCKASQNVGNNVAWYQQKPGKAPKLLISSASNRDSGVPSRFSGSGSGTEFTLTISSLQPDDFATYFCQQYNIYPFTFGQGTKLEIK	%	28

Next up:
Quote % residual binding after heat treatment (room temperature = 100%) reported for VH14_1G.VL15 (antibody, human IgG4 S228P, kappa, V domains shown, VH14_1 with R67K and V68A; Humanized IgG4 (S241P, Kabat) with human kappa; also called 14_1G.15; 14_1 G.15) VH: QVQLVQSGAEVKKPGASVKVSCKASGYTFTSYVMHWVRQAPGQGLEWMGYINPYNDAPKYNEKFKGKATMTSDTSASTAYMELSSLRSDDTAVYYCARGLGYALYYAMDYWGQGTTVTVSS VL: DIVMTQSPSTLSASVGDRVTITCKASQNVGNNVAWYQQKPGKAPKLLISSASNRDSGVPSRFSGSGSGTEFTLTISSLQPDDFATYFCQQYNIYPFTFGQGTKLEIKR please. 16.9
